Each entry below carries its recorded pIC50.
Molecular target: cAMP and cAMP-inhibited cGMP 3',5'-cyclic phosphodiesterase 10A (Homo sapiens, UniProt Q9Y233)
Sequence (Q9Y233 whole entry): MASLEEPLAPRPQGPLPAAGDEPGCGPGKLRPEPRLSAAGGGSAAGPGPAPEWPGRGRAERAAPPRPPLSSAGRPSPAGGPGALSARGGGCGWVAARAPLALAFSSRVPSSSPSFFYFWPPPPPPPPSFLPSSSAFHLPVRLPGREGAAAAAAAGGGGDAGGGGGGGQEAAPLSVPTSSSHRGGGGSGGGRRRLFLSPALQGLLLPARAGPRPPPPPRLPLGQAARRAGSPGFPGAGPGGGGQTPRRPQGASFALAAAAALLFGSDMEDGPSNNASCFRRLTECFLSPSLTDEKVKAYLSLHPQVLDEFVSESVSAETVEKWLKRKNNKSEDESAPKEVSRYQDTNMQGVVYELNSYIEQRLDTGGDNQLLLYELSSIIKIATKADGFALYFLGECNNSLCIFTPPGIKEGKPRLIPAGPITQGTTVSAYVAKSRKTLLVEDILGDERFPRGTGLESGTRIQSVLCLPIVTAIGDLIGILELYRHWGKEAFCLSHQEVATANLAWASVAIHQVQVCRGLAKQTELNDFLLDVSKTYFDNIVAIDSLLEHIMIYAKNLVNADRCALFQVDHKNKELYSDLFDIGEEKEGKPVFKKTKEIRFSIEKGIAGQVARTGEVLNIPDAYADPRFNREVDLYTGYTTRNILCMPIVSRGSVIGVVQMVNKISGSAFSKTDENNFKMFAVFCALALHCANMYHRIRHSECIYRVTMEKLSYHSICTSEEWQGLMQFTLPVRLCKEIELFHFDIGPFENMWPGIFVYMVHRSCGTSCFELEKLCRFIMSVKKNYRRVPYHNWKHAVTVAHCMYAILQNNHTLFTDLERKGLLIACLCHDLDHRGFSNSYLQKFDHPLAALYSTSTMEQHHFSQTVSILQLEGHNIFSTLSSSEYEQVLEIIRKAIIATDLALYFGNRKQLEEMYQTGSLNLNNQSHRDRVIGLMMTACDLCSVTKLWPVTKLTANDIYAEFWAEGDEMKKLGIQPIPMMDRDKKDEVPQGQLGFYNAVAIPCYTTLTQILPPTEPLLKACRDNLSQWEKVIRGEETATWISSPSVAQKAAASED
Scale explanation: pIC50 corresponds to minus log10 of a concentration expressed in moles per litre.

| smilesData | pIC50 |
| --- | --- |
| C[C@H](CNC(=O)c1cccnc1Oc1ccc(C(=O)c2nc3ccccc3[nH]2)cc1)c1ccccc1 | 8.06 |
| c1cnc(Oc2ccc(Nc3nc4ccccc4s3)cc2)c(-c2cncnc2)c1 | 9.52 |
| COc1cc(-c2cccnc2Oc2ccc(C(=O)c3nc4ccccc4[nH]3)cc2)ccn1 | 8.79 |
| O[C@@H]1CC[C@H](c2cccnc2Oc2ccc(Nc3nc4ccccc4s3)cc2)C1 | 8.58 |
| C[C@]1(O)CC[C@H](c2cccnc2Oc2ccc(Nc3nc4ccccc4s3)cc2)CC1 | 8.35 |

Query :: Recall and state the measured pIC50 for c1cnc(Oc2ccc(Nc3nc4ccccc4s3)cc2)c([C@H]2CCOC2)c1 .
Result :: 9.06

Query :: Tell us which pIC50 value is on record for O=C(c1ccc(Oc2ncccc2[C@@H]2CC[C@H](CO)C2)cc1)c1nc2ccccc2[nH]1
Result :: 9.51

Query :: Note down pIC50 recorded for O=C(c1ccc(Oc2ncccc2C(=O)N[C@@H](CO)Cc2ccccc2)cc1)c1nc2ccccc2[nH]1
Result :: 7.89

Query :: Consider the molecule O=C(c1ccc(Oc2ncccc2-c2ncnc3nc[nH]c23)cc1)c1nc2ccccc2[nH]1 and give its recorded pIC50.
Result :: 7.49
